- assayExplanation: Quantum yield measurements versus Acridine Yellow in EtOH
- Format: physicochemical
- protocolConditions: BDC library, Table 2; excitation 460 nm
I'd appreciate it if you could supply φ (quantum yield) values for the items below.
Quick note: number first, unit second.

Any idea what its φ (quantum yield) is? The compound is CC(C)Cc1cn(-c2ccc3n2[B-](F)(F)[N+]2=C(N4CCCCC4)C=CC2=C3c2ccc(N)cc2)nn1
0.10%

Likewise for CCCCCc1ccc(-c2cn(-c3ccc4n3[B-](F)(F)[N+]3=C(N5CCCCC5)C=CC3=C4c3ccc(N)cc3)nn2)cc1 ?
0.23%

Likewise for CC(C)CCc1cn(-c2ccc3n2[B-](F)(F)[N+]2=C(N4CCCCC4)C=CC2=C3c2ccc(N)cc2)nn1 ?
0.11%

Likewise for Nc1ccc(C2=C3C=CC(N4CCCCC4)=[N+]3[B-](F)(F)n3c2ccc3-n2cc(-c3cc(C(F)(F)F)cc(C(F)(F)F)c3)nn2)cc1 ?
0.57%

Likewise for CCCCc1cn(-c2ccc3n2[B-](F)(F)[N+]2=C(N4CCCCC4)C=CC2=C3c2ccc(N)cc2)nn1 ?
0.19%

Likewise for Nc1ccc(C2=C3C=CC(N4CCCCC4)=[N+]3[B-](F)(F)n3c2ccc3-n2cc(-c3ccc(-c4ccccc4)cc3)nn2)cc1 ?
0.20%

Likewise for CCCCCC(O)c1cn(-c2ccc3n2[B-](F)(F)[N+]2=C(N4CCCCC4)C=CC2=C3c2ccc(N)cc2)nn1 (centres unmarked) ?
0.13%

Likewise for CCCC(C)c1cn(-c2ccc3n2[B-](F)(F)[N+]2=C(N4CCCCC4)C=CC2=C3c2ccc(N)cc2)nn1 (centres unmarked) ?
0.37%

Likewise for CCCc1cn(-c2ccc3n2[B-](F)(F)[N+]2=C(N4CCCCC4)C=CC2=C3c2ccc(N)cc2)nn1 ?
0.10%

Likewise for CCCCCCCc1cn(-c2ccc3n2[B-](F)(F)[N+]2=C(N4CCCCC4)C=CC2=C3c2ccc(N)cc2)nn1 ?
0.13%

Likewise for Nc1ccc(C2=C3C=CC(N4CCCCC4)=[N+]3[B-](F)(F)n3c2ccc3-n2cc(-c3ccc(F)cc3F)nn2)cc1 ?
0.12%

Likewise for Nc1ccc(C2=C3C=CC(N4CCCCC4)=[N+]3[B-](F)(F)n3c2ccc3-n2cc(C3CC3)nn2)cc1 ?
0.16%

Likewise for CCCCCCCCc1cn(-c2ccc3n2[B-](F)(F)[N+]2=C(N4CCCCC4)C=CC2=C3c2ccc(N)cc2)nn1 ?
0.13%

Likewise for Cc1ccc(-c2cn(-c3ccc4n3[B-](F)(F)[N+]3=C(N5CCCCC5)C=CC3=C4c3ccc(N)cc3)nn2)cc1 ?
0.28%

* * *

- assayExplanation: Quantum yield measurements versus Acridine Yellow in EtOH
- Assay type: physicochemical
- protocolConditions: BDCAC library, Table 3; excitation 460 nm
I'd appreciate it if you could supply φ (quantum yield) values for the items below.
Answer in %, number only, no unit symbol.

Any idea what its φ (quantum yield) is? The compound is CC(=O)Nc1ccc(C2=C3C=CC(N4CCCCC4)=[N+]3[B-](F)(F)n3c2ccc3-n2cc(CC(C)C)nn2)cc1
0.8

Likewise for CC(=O)Nc1ccc(C2=C3C=CC(N4CCCCC4)=[N+]3[B-](F)(F)n3c2ccc3-n2cc(-c3cccc(C)c3)nn2)cc1 ?
3.2

Likewise for COc1ccc2cc(-c3cn(-c4ccc5n4[B-](F)(F)[N+]4=C(N6CCCCC6)C=CC4=C5c4ccc(NC(C)=O)cc4)nn3)ccc2c1 ?
1.2

Likewise for CC(=O)Nc1ccc(C2=C3C=CC(N4CCCCC4)=[N+]3[B-](F)(F)n3c2ccc3-n2cc(-c3ccc(F)cc3F)nn2)cc1 ?
1.3

Likewise for CC(=O)Nc1ccc(C2=C3C=CC(N4CCCCC4)=[N+]3[B-](F)(F)n3c2ccc3-n2cc(C3CCCCC3)nn2)cc1 ?
2.4

Likewise for CC(=O)Nc1ccc(C2=C3C=CC(N4CCCCC4)=[N+]3[B-](F)(F)n3c2ccc3-n2cc(COc3ccccc3)nn2)cc1 ?
0.8

Likewise for CCCCc1cn(-c2ccc3n2[B-](F)(F)[N+]2=C(N4CCCCC4)C=CC2=C3c2ccc(NC(C)=O)cc2)nn1 ?
1.3

Likewise for CC(=O)Nc1ccc(C2=C3C=CC(N4CCCCC4)=[N+]3[B-](F)(F)n3c2ccc3-n2cc(C3=CCCCC3)nn2)cc1 ?
1.9

Likewise for CC(=O)Nc1ccc(C2=C3C=CC(N4CCCCC4)=[N+]3[B-](F)(F)n3c2ccc3-n2cc(CO)nn2)cc1 ?
0.7

Likewise for CCCCCCCCCCc1cn(-c2ccc3n2[B-](F)(F)[N+]2=C(N4CCCCC4)C=CC2=C3c2ccc(NC(C)=O)cc2)nn1 ?
1.3

Likewise for CCCCCC(O)c1cn(-c2ccc3n2[B-](F)(F)[N+]2=C(N4CCCCC4)C=CC2=C3c2ccc(NC(C)=O)cc2)nn1 (racemic) ?
0.8

Likewise for CC(=O)Nc1ccc(C2=C3C=CC(N4CCCCC4)=[N+]3[B-](F)(F)n3c2ccc3-n2cc(-c3ccccc3)nn2)cc1 ?
1.1

Likewise for CC(=O)Nc1ccc(C2=C3C=CC(N4CCCCC4)=[N+]3[B-](F)(F)n3c2ccc3-n2cc(CCC(C)C)nn2)cc1 ?
0.8
